target: TSLP, Q969D9; experiment: Kd (SPR)
Kd: recorded values
parameter: Kd

1. unnamed (protein) chain 1: QMQLVESGGGVVQPGRSLRLSCAASGFTFRTYGMHWVRQAPGKGLEWVAVIWYDGSNKHYADSVKGRFTITRDNSKNTLNLQMNSLRAEDTAVYYCARAPRYDEYLEAFDVWGQGTMVTVSS chain 2: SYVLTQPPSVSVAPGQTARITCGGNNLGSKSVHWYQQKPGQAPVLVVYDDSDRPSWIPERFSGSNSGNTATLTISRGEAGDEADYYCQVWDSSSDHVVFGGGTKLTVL | 129 nM
2. unnamed (protein) chain 1: QMQLVESGGGVVQPGRSLRLSCAASGFTFRTYGMHWVRQAPGKGLEWVAVIWYDGSNKHYADSVKGRFTITRDNSKNTLNLQMNSLRAEDTAVYYCTRDGGLLFAYYAMDYWGQGTMVTVSS chain 2: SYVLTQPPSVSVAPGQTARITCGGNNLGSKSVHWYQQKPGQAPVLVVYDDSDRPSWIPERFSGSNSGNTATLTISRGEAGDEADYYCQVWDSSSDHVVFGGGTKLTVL | 110 nM

Data credit: the FLAb antibody collection (doi:10.1101/2023.12.08.570889)
